Read-out: Lipoprotein lipase (LPL), LPL (gene 4023)
Test: LTEA_HepaRG_LPL: Life Technologies and Expression Analysis (LTEA) Assay for Lipoprotein lipase (LPL) using HepaRG (AID 2283515)
Details: mRNA level, 48 h; actives raise or lower the signal
Activity calls are given as the source filed them. How the source made its calls: active means hit-call score of the fitted dose curve at least 0.9, where 1 is the maximum; inactive means score below 0.9.
The categories you may choose from are true = active, false = inactive

Consider the following illustrative entries.
>  <compound>
CCCCCCCCN(C)CCCCCCCC

>  <category>
false

$$$$
>  <compound>
O=C1CCC(C2CCCCC2)CC1

>  <category>
false

$$$$
>  <compound>
Cc1oc2c(NC(=O)c3c(Cl)cccc3Cl)cccc2c1C(C)(C)O

>  <category>
true

$$$$
>  <compound>
O=c1c(-c2ccc(O)cc2)coc2cc(O)cc(O)c12

>  <category>
false

$$$$

Dear all, I need the recorded test outcome for O=C1O[C@H]([C@@H](O)CO)C(O)=C1O , thank you.
false

What would you report for COc1ccc2cc(S(=O)(=O)N[C@H](CC(=O)N[C@H](Cc3ccc(CN4[C@H](C)CCC[C@@H]4C)cc3)C(=O)N(C)C(C)C)c3ccc4c(c3)OCO4)ccc2c1 ?
true

Continue with CCCCCCCC[Si](OCC)(OCC)OCC
false

Entry to check: Cc1cccc2ccccc12
false

Input CCCCCCCCOc1ccc(C(=O)c2ccccc2)c(O)c1
false

###

Read-out: ABC Transporter (ABCC3), ABCC3 (gene 8714)
Assay: LTEA_HepaRG_ABCC3: Life Technologies and Expression Analysis (LTEA) Assay for ABC Transporter (ABCC3) using HepaRG (AID 2283462)
Conditions: mRNA level, 48 h; actives raise or lower the signal
Calls of active or inactive are those of the source. How the source made its calls: active means hit-call score of the fitted dose curve at least 0.9, where 1 is the maximum; inactive means score below 0.9.
readout-name: AC50

Examples from the recorded data:
>  <compound>
Clc1ccccc1C(c1ccccc1)(c1ccccc1)n1ccnc1

>  <readout-name>
AC50

>  <value>
78.3 µM (active)

$$$$
>  <compound>
O=c1c(-c2ccc(O)cc2)coc2cc(O)cc(O)c12

>  <readout-name>
AC50

>  <value>
inactive

$$$$
>  <compound>
CC(=O)N1CCN(c2ccc(OC[C@H]3CO[C@](Cn4ccnc4)(c4ccc(Cl)cc4Cl)O3)cc2)CC1

>  <readout-name>
AC50

>  <value>
91.8 µM (active)

$$$$
>  <compound>
O=C(O)c1ccccc1-n1cc(C(=O)O)c(=O)c2cc(Nc3c(F)cc(F)cc3Cl)c(Cl)cc21

>  <readout-name>
AC50

>  <value>
inactive

$$$$
>  <compound>
CCCCCc1ccc(N)cc1

>  <readout-name>
AC50

>  <value>
inactive

$$$$
>  <compound>
CCN(CC)C(=O)c1cc(S(=O)(=O)Cc2ccccc2)c(N2CCC(c3ccccc3)CC2)cc1N(CC)CCN(C)C

>  <readout-name>
AC50

>  <value>
31 µM (active)

$$$$
>  <compound>
CC(O)CC(C)(C)O (stereo unspecified)

>  <readout-name>
AC50

>  <value>
inactive

$$$$
>  <compound>
CC(C)(O)c1ccc(CNC(=O)c2cccnc2Oc2ccc3nonc3c2)cc1

>  <readout-name>
AC50

>  <value>
inactive

$$$$
>  <compound>
CCCC(=O)OCCC(C)C

>  <readout-name>
AC50

>  <value>
inactive

$$$$
>  <compound>
COc1cccc([C@H](O)C2CCN(CCc3ccc(F)cc3)CC2)c1OC

>  <readout-name>
AC50

>  <value>
inactive

$$$$

What value of measured AC50 is listed for O=c1ccc2ccccc2o1 ?
inactive

###

Read-out: Vascular cell adhesion molecule 1 (VCAM1), VCAM1 (gene 7412)
Experiment: BSK_4H_VCAM1: BioMAP Diversity Plus: 4H Assay for Vascular cell adhesion molecule 1 (VCAM1) Biomarker Activity (AID 2283033);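 on outcome: cell-surface VCAM-1 protein measured by ELISA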
Conditions: primary human endothelial cells (HUVEC); actives raise or lower the signal
Active and inactive are the calls of the source. Rule for the calls: active = hit-call score of the fitted dose curve at least 0.9, where 1 is the maximum; inactive = score below 0.9.
Reply using exactly one outcome from T for active, F for inactive

Below, 5 compounds whose answers are already recorded.
>  <compound>
CCCC(=O)OCCC(C)C

>  <category>
F

$$$$
>  <compound>
CC/C(=C(/CC)c1ccc(O)cc1)c1ccc(O)cc1

>  <category>
T

$$$$
>  <compound>
CCCCCc1ccc(N)cc1

>  <category>
F

$$$$
>  <compound>
CN(C[C@@H](CC[N+]12CCC(C3CCCCC3)(CC1)CC2)c1ccc(Cl)c(Cl)c1)C(=O)c1cc(C(F)(F)F)cc(C(F)(F)F)c1

>  <category>
T

$$$$
>  <compound>
COCC(C)OCC(C)OCC(C)O (centres undefined)

>  <category>
F

$$$$

I would be grateful if you could indicate the recorded call for Oc1ccccc1 .
F

How about Cc1ccc(C(C)C)cc1 ?
F

Then what about the compound Clc1ccccc1C(c1ccccc1)(c1ccccc1)n1ccnc1 ?
T

Next: CC(C)(C)c1csc(-c2cc3cc(OCc4ccccc4CC(=O)O)ccc3o2)n1
T

Check CCN(Cc1cccnc1)C(=O)c1cccc(Cl)c1[C@]1(C)C(=O)N(Cc2ccc(OC)cc2OC)c2ccc(Cl)cc21 too.
F

Same thing, different compound: NC(=O)c1nc(-c2cccc(-c3cc(F)ccc3OCC(F)(F)C(F)(F)F)c2)n[nH]1
T

Check O=C(O)Cc1cc(I)c(Oc2ccc(O)c(I)c2)c(I)c1 too.
T

Next compound up: CN1C(=O)N(c2ccccc2Br)Cc2cnc(Nc3ccc4c(c3)OCC(CO)O4)nc21 (centres undefined)
T

Also, COc1cccc([C@H](O)C2CCN(CCc3ccc(F)cc3)CC2)c1OC please.
T

Next: O=C=NCCCCCCN=C=O
F

Another: CN(C)c1ccc(C(=C2C=CC(=[N+](C)C)C=C2)c2ccc(N(C)C)cc2)cc1
T

Next compound: CC(C)(C)c1cc(/C=C2\SC(N)=NC2=O)cc(C(C)(C)C)c1O
T

Okay, and Cc1ccc2oc(CN(Cc3ccccc3)C(=O)Nc3c(F)cc(F)cc3F)c(-c3ccc(Cl)cc3)c2c1 ?
F

What do we get for CCCCCCCCN(C)CCCCCCCC ?
F

What do we get for C[C@]12CC[C@@H]3c4ccc(O)cc4CC[C@H]3[C@@H]1CCC2=O ?
F

// query: CCCCCCCC[Si](OCC)(OCC)OCC
T

Lookup O=C(O)c1ccccc1-n1cc(C(=O)O)c(=O)c2cc(Nc3c(F)cc(F)cc3Cl)c(Cl)cc21
F

Okay, and CCCCCCCCOc1ccc(C(=O)c2ccccc2)c(O)c1 ?
F

Would you mind doing CN1C(=O)CC[C@H]1c1cccnc1 as well?
F

###

Assay: Tanguay_ZF_120hpf_AXIS_legacy: (Legacy) Oregon State University Tanguay Lab 120 Hour Post-fertilization zebrafish Assay for Body Axis Malformation (AID 2283635)
Inconclusive results are not listed. Calls of active or inactive are those of the source. Rule for the calls: active = hit-call score of the fitted dose curve at least 0.9, where 1 is the maximum; inconclusive = response in the unintended direction; inactive = score below 0.9.
Bench note: report the call from YES (active), NO (inactive)

See these solved cases before continuing.
>  <compound>
CCCCCCCCCCCCO

>  <category>
NO

$$$$
>  <compound>
Cc1cc(F)ccc1-c1cc(N2CC[C@@H](O)[C@H]2CO)ncc1N(C)C(=O)C(C)(C)c1cc(C(F)(F)F)cc(C(F)(F)F)c1

>  <category>
NO

$$$$
>  <compound>
CN(C[C@@H](CC[N+]12CCC(C3CCCCC3)(CC1)CC2)c1ccc(Cl)c(Cl)c1)C(=O)c1cc(C(F)(F)F)cc(C(F)(F)F)c1

>  <category>
NO

$$$$
>  <compound>
Cc1ncc(CO)c(CO)c1O

>  <category>
NO

$$$$
>  <compound>
CCCCCCCCCC(=O)O

>  <category>
NO

$$$$

Field: next compound
For Cc1c2ccccc2c(C)c2c1ccc1ccccc12 , which call appears in the assay record?
NO

###

Read-out: MYC, MYC (gene 4609)
Experiment: LTEA_HepaRG_MYC: Life Technologies and Expression Analysis (LTEA) Assay for MYC using HepaRG (AID 2283518)
Details: mRNA level, 48 h; actives raise or lower the signal
Activity calls are given as the source filed them. Rule for the calls: active = hit-call score of the fitted dose curve at least 0.9, where 1 is the maximum; inactive = score below 0.9.
readout-name: AC50

>  <query-smiles>
Cc1c2ccccc2c(C)c2c1ccc1ccccc12

>  <readout-name>
AC50

>  <value>
63.7 µM (active)

$$$$
>  <query-smiles>
Cc1cc(F)ccc1-c1cc(N2CC[C@@H](O)[C@H]2CO)ncc1N(C)C(=O)C(C)(C)c1cc(C(F)(F)F)cc(C(F)(F)F)c1

>  <readout-name>
AC50

>  <value>
17.3 µM (active)

$$$$
>  <query-smiles>
Cc1ccc(C(C)C)cc1

>  <readout-name>
AC50

>  <value>
inactive

$$$$
>  <query-smiles>
O=c1c(-c2ccc(O)cc2)coc2cc(O)cc(O)c12

>  <readout-name>
AC50

>  <value>
inactive

$$$$

As a next step, examine the compound that follows.
Which measured AC50 value corresponds to CN(C)c1ccc(C(=C2C=CC(=[N+](C)C)C=C2)c2ccc(N(C)C)cc2)cc1 ?
12 µM (active)

###

Experiment: BSK_3C_Vis: BioMAP Diversity Plus: 3C Assay for Morphology Visualization (AID 2283025);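 further: fitted both ways so gain or loss versus DMSO counts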
Conditions: primary human endothelial cells (HUVEC)
Activity calls are given as the source filed them. The calls were made as follows: active = hit-call score of the fitted dose curve at least 0.9, where 1 is the maximum; inactive = score below 0.9.
Result category, one only: active, inactive

>  <molecule>
CN1C(=O)CC[C@H]1c1cccnc1

>  <category>
inactive

$$$$
>  <molecule>
CCCCCCCCCCCCO

>  <category>
active

$$$$
>  <molecule>
CC(C)(C)c1cc(/C=C2\SC(N)=NC2=O)cc(C(C)(C)C)c1O

>  <category>
active

$$$$
>  <molecule>
CC(=O)N1CCN(c2ccc(OC[C@H]3CO[C@](Cn4ccnc4)(c4ccc(Cl)cc4Cl)O3)cc2)CC1

>  <category>
active

$$$$
>  <molecule>
O=C(O)c1ccccc1C(=O)OCc1ccccc1

>  <category>
inactive

$$$$

Could you check what this test reported for CC(O)CC(C)(C)O (stereo not drawn) ?
inactive

Next up: Oc1ccccc1
inactive

Entry to check: CN(C)c1ccc(C(=C2C=CC(=[N+](C)C)C=C2)c2ccc(N(C)C)cc2)cc1
active

Item: CN1C(=O)N(c2ccccc2Br)Cc2cnc(Nc3ccc4c(c3)OCC(CO)O4)nc21 (stereo not drawn)
active

What do you get for O=C(O)Cn1c(=O)n(Cc2ccc(Br)cc2F)c(=O)c2ccc(Cl)cc21 ?
inactive

Now consider CCCCCCCCCCCO .
inactive

Can you handle Oc1ccc2ccccc2c1 next?
inactive

Please do the same for c1ccc(C[n+]2cccc3ccccc32)cc1 as well.
inactive
